system: EKVX; assay: relative viability (nuclei count vs DMSO), 5 days (fraction); higher = more cells survive; conditions: first compound 0.8 µM
molecules and their reported relative viability
measured parameter: relative viability

[[record]]
molecule = "O=c1cc(-c2cccc3c2Sc2ccccc2S3)oc(N2CCOCC2)c1 + Nc1nc2[nH]cc(CCc3ccc(C(=O)N[C@@H](CCC(=O)O)C(=O)O)cc3)c2c(=O)[nH]1 [Pemetrexed] (partner 0.2 µM)"
measured_parameter = "relative viability"
observed_result = 0.381

[[record]]
molecule = "O=c1cc(-c2cccc3c2Sc2ccccc2S3)oc(N2CCOCC2)c1 + COc1cccc2cc(-c3nc([C@H]4CC[C@H](C(=O)O)CC4)n4ncnc(N)c34)[nH]c12 [OSI-027] (partner 0.5 µM)"
measured_parameter = "relative viability"
observed_result = 0.678

[[record]]
molecule = "O=c1cc(-c2cccc3c2Sc2ccccc2S3)oc(N2CCOCC2)c1 + CC(=O)c1c(C)c2cnc(Nc3ccc(N4CCNCC4)cn3)nc2n(C2CCCC2)c1=O [Palbociclib] (partner 0.5 µM)"
measured_parameter = "relative viability"
observed_result = 0.345

[[record]]
molecule = "COc1nc(C)cnc1NS(=O)(=O)c1cccnc1-c1ccc(-c2nnco2)cc1 [Zibotentan] + CC(C)C[C@H](NC(=O)[C@H](Cc1ccccc1)NC(=O)c1cnccn1)B(O)O [Bortezomib] (partner 0.002 µM)"
measured_parameter = "relative viability"
observed_result = 1.11

[[record]]
molecule = "O=c1cc(-c2cccc3c2Sc2ccccc2S3)oc(N2CCOCC2)c1 + CS(=O)(=O)CCNCc1ccc(-c2ccc3ncnc(Nc4ccc(OCc5cccc(F)c5)c(Cl)c4)c3c2)o1 [Lapatinib] (partner 2 µM)"
measured_parameter = "relative viability"
observed_result = 0.166

[[record]]
molecule = "COc1nc(C)cnc1NS(=O)(=O)c1cccnc1-c1ccc(-c2nnco2)cc1 [Zibotentan] + N=C(N)NC(=N)NCCc1ccccc1 [Phenformin] (partner 250 µM)"
measured_parameter = "relative viability"
observed_result = 0.249

[[record]]
molecule = "O=c1cc(-c2cccc3c2Sc2ccccc2S3)oc(N2CCOCC2)c1 + CCNC(=O)c1noc(-c2cc(C(C)C)c(O)cc2O)c1-c1ccc(CN2CCOCC2)cc1 [Luminespib] (partner 0.01 µM)"
measured_parameter = "relative viability"
observed_result = 0.846

[[record]]
molecule = "O=c1cc(-c2cccc3c2Sc2ccccc2S3)oc(N2CCOCC2)c1 + Cc1nc(NC(=O)N2CCC[C@H]2C(N)=O)sc1-c1ccnc(C(C)(C)C(F)(F)F)c1 [Alpelisib] (partner 2 µM)"
measured_parameter = "relative viability"
observed_result = 0.805

[[record]]
molecule = "O=c1cc(-c2cccc3c2Sc2ccccc2S3)oc(N2CCOCC2)c1 + C[C@]1(O)C[C@@H](c2nc(-c3ccc4ccc(-c5ccccc5)nc4c3)c3c(N)nccn32)C1 [Linsitinib] (partner 1 µM)"
measured_parameter = "relative viability"
observed_result = 0.818

[[record]]
molecule = "COc1nc(C)cnc1NS(=O)(=O)c1cccnc1-c1ccc(-c2nnco2)cc1 [Zibotentan] + CC1(C)CCC(c2ccc(Cl)cc2)=C(CN2CCN(c3ccc(C(=O)NS(=O)(=O)c4ccc(N[C@H](CCN5CCOCC5)CSc5ccccc5)c(S(=O)(=O)C(F)(F)F)c4)cc3)CC2)C1 [Navitoclax] (partner 0.5 µM)"
measured_parameter = "relative viability"
observed_result = 0.943

